// values below are reported GI50
- System: SF-539
- TEST_NAME: NCI tumour cell line growth inhibition, 48 h
Calls of active or inactive are those of the source. Rule as the data show it: active = GI50 up to about 1.1 µM and inactive = higher.

Examples with answers:
MOLECULE	SYSTEM_NAME	GI50
O=C1CC2(CCN(CC3COc4ccccc4O3)CC2)C(=O)N1N1CCCCCC1 (stereo not given)	SF-539	> 100 µM (inactive)
CC(C)=CCC/C(C)=C/Cc1c2c(c3oc(-c4ccc(O)c(O)c4)c(O)c(=O)c3c1O)C=CC(C)(C)O2	SF-539	1.79 µM (inactive)
CCCCCCCC1C(C)c2c([nH]c3ccccc23)C2C(=O)N(c3ccc(OC)cc3)C(=O)C21 (stereo not given)	SF-539	2.69 µM (inactive)
CSc1nc2c(c(=O)[nH]1)N=C(c1ccccc1)CC(c1ccccc1)N2 (stereo not given)	SF-539	23.2 µM (inactive)
O=CNCCCN1CCN(CCCNC=O)CC1	SF-539	> 100 µM (inactive)

*Q* Complete the entry with GI50 for NC1=Nc2cc(C(F)(F)F)ccc2Sc2nc3ccccc3n21
*A* > 46.5 µM (inactive)

*Q* Complete the entry with GI50 for COC(=O)C(Cc1c[nH]c2ccccc12)NP(=O)(O)OCC1OC(n2cc(F)c(=O)[nH]c2=O)CC1O (stereo not given)
*A* 4.71 µM (inactive)

*Q* Complete the entry with GI50 for CCC(C)CC(C)CC(C)/C=C(\C)C1=C(C)CC(C)(O)O1 (stereo not given)
*A* > 100 µM (inactive)
